Molecular target: monoamine oxidase-B (MAO-B) (Rattus norvegicus, UniProt P19643)
Construct: in cellular extracts obtained from cultures of neonatal rat striatal astroglial cells; endogenous in cells
Sequence (P19643 1-520): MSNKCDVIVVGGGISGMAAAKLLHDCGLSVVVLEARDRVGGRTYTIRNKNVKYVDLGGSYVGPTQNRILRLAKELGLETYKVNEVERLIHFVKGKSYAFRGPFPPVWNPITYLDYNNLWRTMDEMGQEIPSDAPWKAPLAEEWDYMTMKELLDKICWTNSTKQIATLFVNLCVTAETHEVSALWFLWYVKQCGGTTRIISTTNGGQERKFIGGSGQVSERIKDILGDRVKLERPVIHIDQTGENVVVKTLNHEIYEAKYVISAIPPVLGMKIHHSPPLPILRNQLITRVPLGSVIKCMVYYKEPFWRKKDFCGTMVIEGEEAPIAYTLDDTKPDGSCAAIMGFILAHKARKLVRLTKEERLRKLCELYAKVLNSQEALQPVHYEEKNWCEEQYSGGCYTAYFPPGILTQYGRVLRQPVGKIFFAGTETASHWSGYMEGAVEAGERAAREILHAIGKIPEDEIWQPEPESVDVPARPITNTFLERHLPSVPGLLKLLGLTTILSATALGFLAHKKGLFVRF
Assay: MAO-B activity in astroglial cell extracts in the presence of clorgyline, Amplex Red MAO assay
Settings: read-out: apparent IC50, blockade of MAO-B activity
pIC50: −log10 of the molar value.
readoutName: pIC50

compound	subjectOfTest	readoutName	reportedResult
S=c1ccss1 [Compound D3T, 3H-1,2-dithiole-3-thione]	monoamine oxidase-B (MAO-B) (Rattus norvegicus, UniProt P19643)	pIC50	~4.70

###

tested on: MAO-B; test: MAO-B inhibitory activity measured at CEREP (protocol of Salach); format: biochemical

structureNotation	MAO-B %-inhibition at 10^−5 M [%]
S=c1cc(C=Cc2ccc3ccccc3n2)ss1	56
Cc1ccc(-c2c(N3CCN(c4ccccc4)CC3)ssc2=S)cc1	54
CCCCCCOc1ccc(-c2cssc2=S)cc1	100
S=c1ssc(N2CCN(c3cccc4c3OCCO4)CC2)c1-c1ccccc1	65
CCN(CC)c1ccc(C=Cc2cc(=S)ss2)cc1	52
